assay: xn = mol fraction of the nth substance listed, in the solute-free solvent; settings: 283.15 K; x2 = 0.6

[
  {
    "compound": "CC(C)C(=O)Nc1ccc([N+](=O)[O-])c(C(F)(F)F)c1 + C1CCOC1 + CC(C)O",
    "solubility (g/100 g solution)": 49.7
  },
  {
    "compound": "CC(C)C(=O)Nc1ccc([N+](=O)[O-])c(C(F)(F)F)c1 + CCOC(C)=O + CC(C)O",
    "solubility (g/100 g solution)": 38
  },
  {
    "compound": "CC(C)C(=O)Nc1ccc([N+](=O)[O-])c(C(F)(F)F)c1 + CC(C)=O + CC(C)O",
    "solubility (g/100 g solution)": 47.5
  },
  {
    "compound": "Cl.NC1CCSC1=O (centres undefined) + CO + CC#N",
    "solubility (g/100 g solution)": 4.35
  }
]

###

assay: xn = mol fraction of the nth substance listed, in the solute-free solvent; details: 293.15 K; x2 = 0.7297

[
  {
    "molecule": "CC(C)C(=O)Nc1ccc([N+](=O)[O-])c(C(F)(F)F)c1 + CC(C)O + O",
    "solubility (g/100 g solution)": 24.2
  },
  {
    "molecule": "O=c1cc(CBr)c2ccccc2[nH]1 + CC(C)O + O",
    "solubility (g/100 g solution)": 0.0962
  },
  {
    "molecule": "O=C1C=CC(=O)N1c1ccccc1Br + CC(C)O + O",
    "solubility (g/100 g solution)": 6.58
  },
  {
    "molecule": "Nc1ncc(Br)nc1Br + CC(C)O + O",
    "solubility (g/100 g solution)": 0.324
  },
  {
    "molecule": "O=c1cc(CBr)c2ccccc2[nH]1 + CCCO + O",
    "solubility (g/100 g solution)": 0.138
  }
]

###

experiment: xn = mol fraction of the nth substance listed, in the solute-free solvent; conditions: 313.15 K; x2 = 0.1666
observable: solubility (g/100 g solution)

[
  {
    "compound": "O=C1C=CC(=O)N1c1ccccc1Br + CC(C)O + O",
    "experimental-result": 8.01
  },
  {
    "compound": "CC(C)C(=O)Nc1ccc([N+](=O)[O-])c(C(F)(F)F)c1 + CC(C)O + O",
    "experimental-result": 1.82
  },
  {
    "compound": "Nc1ncc(Br)nc1Br + CC(C)O + O",
    "experimental-result": 0.269
  },
  {
    "compound": "O=c1cc(CBr)c2ccccc2[nH]1 + CCCO + O",
    "experimental-result": 0.159
  },
  {
    "compound": "O=c1cc(CBr)c2ccccc2[nH]1 + CC(C)O + O",
    "experimental-result": 0.136
  }
]

###

assay: xn = mol fraction of the nth substance listed, in the solute-free solvent; details: 283.15 K; x2 = 0.6101
# maps each entry to its solubility (g/100 g solution)
observable: solubility (g/100 g solution)

[
  {
    "molecule": "O=C1C=CC(=O)N1c1ccccc1Br + CCO + O",
    "observable": "solubility (g/100 g solution)",
    "experimental-result": 6.52
  },
  {
    "molecule": "Nc1cc(-c2ccncc2)c[nH]c1=O + CCO + O",
    "observable": "solubility (g/100 g solution)",
    "experimental-result": 0.0112
  },
  {
    "molecule": "CC(C)C(=O)Nc1ccc([N+](=O)[O-])c(C(F)(F)F)c1 + CCO + O",
    "observable": "solubility (g/100 g solution)",
    "experimental-result": 10.5
  },
  {
    "molecule": "Nc1ncc(Br)nc1Br + CCO + O",
    "observable": "solubility (g/100 g solution)",
    "experimental-result": 0.396
  },
  {
    "molecule": "O=c1cc(CBr)c2ccccc2[nH]1 + CCO + O",
    "observable": "solubility (g/100 g solution)",
    "experimental-result": 0.103
  }
]

###

test: xn = mol fraction of the nth substance listed, in the solute-free solvent; conditions: 303.15 K; x2 = 0.1666
observable: solubility (g/100 g solution)

[
  {
    "compound": "O=C1C=CC(=O)N1c1ccccc1Br + CC(C)O + O",
    "experimental-result": 5.69
  },
  {
    "compound": "O=c1cc(CBr)c2ccccc2[nH]1 + CCCO + O",
    "experimental-result": 0.125
  },
  {
    "compound": "O=c1cc(CBr)c2ccccc2[nH]1 + CC(C)O + O",
    "experimental-result": 0.0986
  },
  {
    "compound": "Nc1ncc(Br)nc1Br + CC(C)O + O",
    "experimental-result": 0.218
  },
  {
    "compound": "CC(C)C(=O)Nc1ccc([N+](=O)[O-])c(C(F)(F)F)c1 + CC(C)O + O",
    "experimental-result": 1.32
  }
]

###

Measured solubility (g/100 g solution), listed per entry.
test: xn = mol fraction of the nth substance listed, in the solute-free solvent; settings: 283.15 K; x2 = 0.2

[
  {
    "molecule": "CC(C)C(=O)Nc1ccc([N+](=O)[O-])c(C(F)(F)F)c1 + C1CCOC1 + CC(C)O",
    "solubility (g/100 g solution)": 33.5
  },
  {
    "molecule": "CC(C)C(=O)Nc1ccc([N+](=O)[O-])c(C(F)(F)F)c1 + CC(C)=O + CC(C)O",
    "solubility (g/100 g solution)": 34.1
  },
  {
    "molecule": "CC(C)C(=O)Nc1ccc([N+](=O)[O-])c(C(F)(F)F)c1 + CCOC(C)=O + CC(C)O",
    "solubility (g/100 g solution)": 30.8
  },
  {
    "molecule": "Cl.NC1CCSC1=O (centres undefined) + CO + CC#N",
    "solubility (g/100 g solution)": 0.482
  }
]

###

assay: xn = mol fraction of the nth substance listed, in the solute-free solvent; conditions: 298.15 K; x2 = 0.7788
So basically: solubility (g/100 g solution) at 10 or higher? That is YES. Lower than 10? That is NO.

[
  {
    "molecule": "Nc1ncc(Br)nc1Br + CCO + O",
    "assigned-label": "NO"
  },
  {
    "molecule": "O=c1cc(CBr)c2ccccc2[nH]1 + CCO + O",
    "assigned-label": "NO"
  },
  {
    "molecule": "O=C1C=CC(=O)N1c1ccccc1Br + CCO + O",
    "assigned-label": "YES"
  },
  {
    "molecule": "Nc1cc(-c2ccncc2)c[nH]c1=O + CCO + O",
    "assigned-label": "NO"
  },
  {
    "molecule": "CC(C)C(=O)Nc1ccc([N+](=O)[O-])c(C(F)(F)F)c1 + CCO + O",
    "assigned-label": "YES"
  }
]

###

Listed here are compounds together with their documented solubility (g/100 g solution).
assay: xn = mol fraction of the nth substance listed, in the solute-free solvent; conditions: 303.15 K; x2 = 0.1139
observable: solubility (g/100 g solution)

[
  {
    "compound": "O=c1cc(CBr)c2ccccc2[nH]1 + CC(C)O + O",
    "experimental-result": 0.0827
  },
  {
    "compound": "O=C1C=CC(=O)N1c1ccccc1Br + CC(C)O + O",
    "experimental-result": 3.97
  },
  {
    "compound": "O=c1cc(CBr)c2ccccc2[nH]1 + CCCO + O",
    "experimental-result": 0.104
  },
  {
    "compound": "CC(C)C(=O)Nc1ccc([N+](=O)[O-])c(C(F)(F)F)c1 + CC(C)O + O",
    "experimental-result": 0.415
  },
  {
    "compound": "Nc1ncc(Br)nc1Br + CC(C)O + O",
    "experimental-result": 0.148
  }
]

###

assay: xn = mol fraction of the nth substance listed, in the solute-free solvent; conditions: 293.15 K; x2 = 0.4117
Quick rule for you: solubility (g/100 g solution) at 0.3 or higher means y, lower means n.

[
  {
    "molecule": "O=c1cc(CBr)c2ccccc2[nH]1 + CCCO + O",
    "assigned-label": "n"
  },
  {
    "molecule": "O=C1C=CC(=O)N1c1ccccc1Br + CC(C)O + O",
    "assigned-label": "y"
  },
  {
    "molecule": "CC(C)C(=O)Nc1ccc([N+](=O)[O-])c(C(F)(F)F)c1 + CC(C)O + O",
    "assigned-label": "y"
  },
  {
    "molecule": "Nc1ncc(Br)nc1Br + CC(C)O + O",
    "assigned-label": "n"
  },
  {
    "molecule": "O=c1cc(CBr)c2ccccc2[nH]1 + CC(C)O + O",
    "assigned-label": "n"
  }
]
